All values here come from ChEMBL document CHEMBL5215010.

- Test system: Staphylococcus aureus
- Assay name: Antibacterial activity against Staphylococcus aureus assessed as bacterial growth inhibition by CLSI protocol based broth microdilution assay
- Assay type: functional
Property label: MIC (µg/mL)
Just the number in µg/mL, nothing appended.

The examples below pair each entry with its known result.
Cc1cc(O)c2c(c1)C(=O)C1=C(C2=O)[C@H]2C(O)=C3C(=O)c4c(O)cc(C)cc4C(=O)[C@@]34C[C@H](O)C1C4[C@H]2O (stereo not given in full) :: 1.6
Cc1cc(O)c2c(c1)C(=O)[C@]13C[C@H](O)C4C1[C@@H](O)[C@H](C(O)=C3C2=O)[C@@]12O[C@@]41C(=O)c1cc(C)cc(O)c1C2=O (stereo not given in full) :: 0.4
Cc1cc(O)c2c(c1)C(=O)C1=C(C2=O)[C@H]2C(O)=C3C(=O)c4c(O)cc(C)cc4C(=O)[C@@]34CC(=O)C1C4[C@H]2O (stereo not given in full) :: 0.4
O=C(N[C@H](CO)[C@H](O)c1ccc([N+](=O)[O-])cc1)C(Cl)Cl :: 0.3

Moving on to the next compound.
Quickly give me recorded MIC for Cc1cc(O)c2c(c1)C(=O)[C@]13C[C@H](O)C4C1[C@@H](O)[C@H](C(O)=C3C2=O)[C@@]12O[C@@]41C(=O)c1cc(C)cc(O)c1[C@H]2O (stereo not given in full) 6.5
